// provenance: the supplement of paper PMC12669032

Could you please report measured growth AUC for the items listed next?
system: Bacteroides clarus; assay: growth AUC relative to DMSO control (median of replicates) (fraction); higher = more growth (less inhibition), active = hit call of the paper; details: 20 µM; 24 h
Form field (numeric): enter value without unit.

growth AUC in this record for CC(C)=CC1C(C(=O)OC(C#N)c2cccc(Oc3ccccc3)c2)C1(C)C (mixture of isomers) : 0.994

growth AUC in this record for OC[C@@H](O)[C@H]1O[C@@H]2O[C@H](C(Cl)(Cl)Cl)O[C@@H]2[C@H]1O (mixture of isomers) : 0.978

growth AUC in this record for CC(C)C1(C)N=C(c2ncccc2C(=O)O)NC1=O (stereo not given) : 1.01

growth AUC in this record for CCOP(=O)(OCC)Oc1ccc([N+](=O)[O-])cc1 : 0.999

growth AUC in this record for Fc1ccc(C2(Cn3cncn3)OC2c2ccccc2Cl)cc1 (stereo not given) : 0.93

growth AUC in this record for O=C(O)CCCOc1ccc(Cl)cc1Cl : 0.978

growth AUC in this record for ClC1C(Cl)C(Cl)C(Cl)C(Cl)C1Cl (mixture of isomers) : 0.932

growth AUC in this record for COC(=O)c1ccccc1S(=O)(=O)NC(=O)N(C)c1nc(C)nc(OC)n1 : 0.979

growth AUC in this record for CCOP(=S)(OCC)Oc1nc(Cl)c(Cl)cc1Cl : 0.95

growth AUC in this record for Nc1nc(N)nc(NC2CC2)n1 : 1.02

====

system: Bacteroides thetaiotaomicron; assay: growth AUC relative to DMSO control (median of replicates) (fraction); higher = more growth (less inhibition), active = hit call of the paper; conditions: 20 µM; 24 h;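 active = AUC reduced over 20% with Padj below 0.05 in at least 2 of 3 replicates; inactive = otherwise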
Respond only with the outcome that fits, drawn from active, inactive

stdin: Could you kindly confirm the outcome this assay logged for CCOP(=S)(NC(C)CC)Oc1cc(C)ccc1[N+](=O)[O-] (stereo not given) ?
stdout: inactive

stdin: Could you kindly confirm the outcome this assay logged for CCS(=O)(=O)Cc1ccccc1OC(=O)NC ?
stdout: inactive

stdin: Could you kindly confirm the outcome this assay logged for OC(c1ccc(Cl)cc1)(c1ccc(Cl)cc1)C(Cl)(Cl)Cl ?
stdout: active

stdin: Could you kindly confirm the outcome this assay logged for COP(=O)(NC(C)=O)SC (stereo not given) ?
stdout: inactive

stdin: Could you kindly confirm the outcome this assay logged for Cc1nc(N(C)C=O)nc(OC(=O)N(C)C)c1C ?
stdout: inactive

stdin: Could you kindly confirm the outcome this assay logged for CCOP(=O)(OCC)Oc1ccc([N+](=O)[O-])cc1 ?
stdout: inactive

stdin: Could you kindly confirm the outcome this assay logged for CCOP(=S)(Oc1ccc([N+](=O)[O-])cc1)c1ccccc1 (stereo not given) ?
stdout: inactive

stdin: Could you kindly confirm the outcome this assay logged for C#CCN1CC(=O)N(COC(=O)C2C(C=C(C)C)C2(C)C)C1=O (mixture of isomers) ?
stdout: inactive

stdin: Could you kindly confirm the outcome this assay logged for OC[C@@H](O)[C@H]1O[C@@H]2O[C@H](C(Cl)(Cl)Cl)O[C@@H]2[C@H]1O (mixture of isomers) ?
stdout: inactive

stdin: Could you kindly confirm the outcome this assay logged for CCOCn1c(-c2ccc(Cl)cc2)c(C#N)c(Br)c1C(F)(F)F ?
stdout: inactive

====

system: Bifidobacterium longum subsp. longum; test: growth AUC relative to DMSO control (median of replicates) (fraction); higher = more growth (less inhibition), active = hit call of the paper; settings: 20 µM; 24 h
Could you please report measured growth AUC for the items listed next?
Form field (numeric): enter value without unit.

growth AUC in this record for O=[N+]([O-])c1cc(Cl)ccc1Cl : 1.01

growth AUC in this record for CCOP(=S)(OCC)Oc1ccc(S(C)=O)cc1 (configuration not stated) : 0.97

growth AUC in this record for CCN(CC)C(=O)C(C)Oc1cccc2ccccc12 (configuration not stated) : 0.989

growth AUC in this record for O=[N+]([O-])c1c(Cl)c(Cl)cc(Cl)c1Cl : 0.98

growth AUC in this record for CNC(=O)CSP(=O)(OC)OC : 1.06

growth AUC in this record for CCS(=O)(=O)Cc1ccccc1OC(=O)NC : 1.01

growth AUC in this record for O=[N+]([O-])c1ccc(O)c([N+](=O)[O-])c1 : 1
